# Tested on: 931267-113-T-J1-PDC multicell spheroid viability;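 further: viability read 7 days after compound addition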
# method-summary: Anticancer human tumor 931267-113-T-J1-PDC patient-derived colon adenocarcinoma cell line growth inhibition [PI3K]
# experimental-context: second compound 0.1 µM; first compound 1 µM; active compounds read low
Please respond with label 1 when measured viability, T/C is strictly beneath 90%, and with label 0 in all other cases.

compound: C#Cc1c(F)ccc2cc(O)cc(-c3ncc4c(N5CC6CCC(C5)N6)nc(OCC56CCCN5CC(F)C6)nc4c3F)c12 (stereo unspecified) + CC(Nc1ncnc2nc[nH]c12)c1cc2cccc(Cl)c2c(=O)n1-c1ccccc1
target-system: 931267-113-T-J1-PDC multicell spheroid viability;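 further: viability read 7 days after compound addition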
class-assignment: label 1

Consider now this further compound.
Inquiry: Identify whether the compound Cn1nccc1Nc1nccc(-c2ccn(C(CO)c3ccc(Cl)c(F)c3)c(=O)c2)n1 (stereo unspecified) + COc1c(OCCCN2CCOCC2)ccc2c3n(c(=NC(=O)c4cnc(N)nc4)nc12)CCN3 records viability, T/C below 90%.
Reply text: label 1

Values were extracted from PubChem BioAssay AID1963970.
